I'd appreciate it if you could supply polymerase ribozyme fitness (log ratio) values for the items below.
B1: TPR t1 (parent)
chain: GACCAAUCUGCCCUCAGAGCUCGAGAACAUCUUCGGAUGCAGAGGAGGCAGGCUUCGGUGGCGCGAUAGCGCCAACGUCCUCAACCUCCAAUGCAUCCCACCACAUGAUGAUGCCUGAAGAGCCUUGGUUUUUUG

Variants of: B1
METHOD_DESCRIPTION: polymerase ribozyme fitness, log enrichment relative to wild type (log ratio); higher = more active; in vitro selection for triplet polymerase activity
Numbers only.

Consider the following items and state reported polymerase ribozyme fitness (log ratio) for each.
1. G71U U116C
2. G45A G63C C82U
3. A5U C85A C88U A100U A111G

[-0.726, -0.994, -2.1]

Field: polymerase ribozyme fitness (log ratio). Fill in for each record below.
1. C4G C88A
2. U81C C123A
3. C12A U33C A103C G113U C114G G127U

1: -2.51; 2: -0.309; 3: -6.43

Quick request: polymerase ribozyme fitness (log ratio) for each listed item, please.
1. C62A G110C G127U
2. G117C U130G
3. A50U G58C G71C C104A C124A

-5.37
-3.7
-3.2

For every item below, please supply its polymerase ribozyme fitness (log ratio).
1. G58U G71A C79A A103G C115U
2. C56A G61C C62U C72G C89U
3. C8A C31A U129C
4. U7C C20U C62A A83C A119G
5. G45U A46G G69A U106A
6. A50C C72G G127A

[-7.13, -0.49, -5.73, -1.83, -3.18, -2.8]
